Values compiled from patent US20180334496A1.

- System Name: human Complement Factor D (serum purified) (human, UniProt P00746 26-253)
- Sequence (P00746 26-253): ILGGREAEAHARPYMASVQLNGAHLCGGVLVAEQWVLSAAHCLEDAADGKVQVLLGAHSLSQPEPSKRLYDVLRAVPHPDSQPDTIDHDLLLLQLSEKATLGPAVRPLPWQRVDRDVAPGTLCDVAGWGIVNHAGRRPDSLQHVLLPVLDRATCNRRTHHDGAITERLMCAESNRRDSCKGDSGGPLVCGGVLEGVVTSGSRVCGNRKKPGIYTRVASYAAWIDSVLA
- Experiment Notes: cell-based or functional assay
Measure Name: Vmax (OD/sec), CFD enzymatic activity on Z-L-Lys-SBzl
Supply the numeric figure in OD/sec, leaving out any unit text.

Binder	Units Of Measure	Measured Number
Mouse KCD119 (antibody, V domains shown) VH: EVQLQQSGPELVKPGASVKISCKASGYTFTDYYTNWMRQRHGESLEWIGDINPNTGDTSYNQKFRVKATLTVDKSSGTAYMGLRSLTSEDSAVYYCTREGPSFAYWGQGTLVTVSA VL: DVLMTQTPLSLPVSLGDQASISCRSSQTIVHSNGDTYLEWYLQKPGQSPNLLIYKVSNRFSGVPDRFSGSGSGTDFTLKISRVEAEDLGVYYCFQGSHVPPTFGGGTTLEIK	OD/sec	0.318
KCD119 TAF (antibody, V domains shown) VH: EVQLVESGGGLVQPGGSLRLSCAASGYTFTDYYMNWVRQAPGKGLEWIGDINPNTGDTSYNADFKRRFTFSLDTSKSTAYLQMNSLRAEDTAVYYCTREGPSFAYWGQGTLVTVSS VL: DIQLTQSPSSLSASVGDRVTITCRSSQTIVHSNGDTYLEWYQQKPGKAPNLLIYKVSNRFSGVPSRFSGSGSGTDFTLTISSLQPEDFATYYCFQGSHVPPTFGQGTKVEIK	OD/sec	0.408
34I54V59D84S/54R101V (SEQ ID NO: 184) (antibody, V domains shown) VH: EVQLVESGGGLVQPGGSLRLSCAASGYTFTDYYINWVRQAPGKGLEWIGDINPVTGDTDYNADFKRRFTFSLDTSKSTAYLQMSSLRAEDTAVYYCTREGPSFAYWGQGTLVTVSS VL: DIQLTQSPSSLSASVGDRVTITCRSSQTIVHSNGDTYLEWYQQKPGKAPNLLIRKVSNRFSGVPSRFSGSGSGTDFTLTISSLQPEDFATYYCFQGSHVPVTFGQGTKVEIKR	OD/sec	0.486

Moving on to the next binder.
Entry 31S34I54V59D84S/54R101V (SEQ ID NO: 184) (antibody, V domains shown) VH: EVQLVESGGGLVQPGGSLRLSCAASGYTFTSYYINWVRQAPGKGLEWIGDINPVTGDTDYNADFKRRFTFSLDTSKSTAYLQMSSLRAEDTAVYYCTREGPSFAYWGQGTLVTVSS VL: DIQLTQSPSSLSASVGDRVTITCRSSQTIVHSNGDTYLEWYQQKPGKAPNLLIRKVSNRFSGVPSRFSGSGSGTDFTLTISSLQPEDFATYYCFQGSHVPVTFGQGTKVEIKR , Vmax (OD/sec), CFD enzymatic activity on Z-L-Lys-SBzl reported as 0.596
